B1: EHEE_rd2_0601 (parent)
chain: TYTYKLTDEEASRRAEDEWRNRGYDVRVRNNNGTWEVEVR

- Variants of: B1
- test: folding stability dG (cDNA display proteolysis); higher = more stable
- protocol-conditions: PBS, room temperature
Category | rule: reported folding stability dG within range, see low class: < 0.4 kcal/mol; middle class: ≥ 0.4 kcal/mol and < 1 kcal/mol; high class: ≥ 1 kcal/mol

Q: Class for KYTYKLTDEEASRRAEDEWRNRGYDVRVRNNNGTWEVEVR [T1K] ?
Ans: high class

Q: Place this variant in its band: TYTYSLTDEEASRRAEDEWRNRGYDVRVRNNNGTWEVEVR [K5S]
Ans: high class

Q: Category of TYTYKLTDEEASRRAEREWRNRGYDVRVRNNNGTWEVEVR [D17R] :
Ans: high class

Q: Which folding stability dG category applies to TYTYKLTDEEASRRAEDEWRNRGYDVRVRNNNGTWEVETR [V39T] here?
Ans: low class

Q: Category lookup for the variant TYTYKLTDEEASRRAEDEWRNRGHDVRVRNNNGTWEVEVR [Y24H]
Ans: middle class

Q: Which band does TYTYKLTDEEASRRAEDEWRNRGYDTRVRNNNGTWEVEVR [V26T] fall in?
Ans: middle class

Q: Lab note: which band did TYTYKLTDEEASSRAEDEWRNRGYDVRVRNNNGTWEVEVR [R13S] land in?
Ans: middle class

Q: Which category does the recorded folding stability dG put TYTYKLTDEEASRRAEDEWRNRHYDVRVRNNNGTWEVEVR [G23H] in?
Ans: low class

Q: For this variant, which bin applies? TYTYKLTDEEASRRAEDEWRNRGYDVRVRNNNRTWEVEVR [G33R]
Ans: low class

Q: Entry TYTYKLTDEEASRRAEDEWRNRGYDVRVRNNNGQWEVEVR [T34Q] belongs to which category?
Ans: high class

Q: Textbook exercise: identify the category of the variant given here, MYTYKLTDEEASRRAEDEWRNRGYDVRVRNNNGTWEVEVR [T1M] , according to its measured value.
Ans: high class

Q: Consider TYTYKLTDEEASRVAEDEWRNRGYDVRVRNNNGTWEVEVR [R14V] . To which folding stability dG class does it belong?
Ans: high class

Q: Lab log: TYTYKLTDEEASRRAEDEWRNRGYDVRVRNNNGDWEVEVR [T34D] — assign folding stability dG category
Ans: middle class

Q: Given TYTYKLTDEEASRRAEDEWRNRGYDVRVRNNNQTWEVEVR [G33Q] , name the class its folding stability dG places it in.
Ans: low class

Q: Which band does TYTYKLTDEEASRRAEDEWRNRGYDVRVRNNNMTWEVEVR [G33M] fall in?
Ans: low class

Q: # bin label for TYTYKLTDEEASRRAEDEWRNRGYDVRVRNNLGTWEVEVR [N32L]
Ans: middle class

Q: Kindly identify the class of TYTYKLTDEEASRQAEDEWRNRGYDVRVRNNNGTWEVEVR [R14Q] .
Ans: high class

Q: Consider TYTYKLTDEEASRRAEDEWRNRGYDFRVRNNNGTWEVEVR [V26F] . To which folding stability dG class does it belong?
Ans: low class

Q: // bin(item) where item = TYTYKLTDPEASRRAEDEWRNRGYDVRVRNNNGTWEVEVR [E9P]
Ans: middle class

Q: Which of the defined bands does the recorded folding stability dG of TYTYKLTDEQASRRAEDEWRNRGYDVRVRNNNGTWEVEVR [E10Q] sit within?
Ans: high class

Q: Could you tell me which band TYTYKLTDEEASRRAEDEWRNRGYDVRFRNNNGTWEVEVR [V28F] belongs to?
Ans: low class

Q: Field: class (folding stability dG) — entry: TYTYKLTDEEASRRAEDEWRNRGYDVRVRNNNGTWEVSVR [E38S]
Ans: high class

Q: Band of TYTYKLTDEEASRRAEDEWRNRGYRVRVRNNNGTWEVEVR [D25R] ?
Ans: high class

Q: Assign a category based on measured folding stability dG for TYTYKLTDEEASRRAEDEWRNNGYDVRVRNNNGTWEVEVR [R22N] and give only the class name.
Ans: middle class

Q: Which folding stability dG category applies to TFTYKLTDEEASRRAEDEWRNRGYDVRVRNNNGTWEVEVR [Y2F] here?
Ans: high class

Q: State the band of TYTWKLTDEEASRRAEDEWRNRGYDVRVRNNNGTWEVEVR [Y4W]
Ans: high class

Q: Place this variant in its band: TYTYKLTDEEASRRAEDEWRNRGYDVRVRNNNGIWEVEVR [T34I]
Ans: high class

Q: Input TYTYKLTDEEASRRAEDEWRNRGRDVRVRNNNGTWEVEVR [Y24R] ; output its category
Ans: low class

Q: Into which bin does this variant go? TYTYKLTDEEASRRAEDEWRNRGYDVRVRNNNGTWEVEVN [R40N]
Ans: middle class

Q: Given TYTYKLTDEEASRGAEDEWRNRGYDVRVRNNNGTWEVEVR [R14G] , name the class its folding stability dG places it in.
Ans: middle class

Q: Using the reported folding stability dG, which band applies to TYTYKLTDEEASRRAEDEWRNRGYAVRVRNNNGTWEVEVR [D25A] ?
Ans: high class

Q: Lab note: sort TYTYKLTDEEASRRAEDEWRNRGYDVRVRNNNGTWQVEVR [E36Q] into the matching folding stability dG band.
Ans: middle class

Q: Hey, which category is TYTYKLTDEEASRRAEDEWRNRGYDVRHRNNNGTWEVEVR [V28H] in, do you know?
Ans: low class

Q: Class label required: TYTYKLTDEEASRRAEDEWKNRGYDVRVRNNNGTWEVEVR [R20K]
Ans: high class

Q: Band assignment needed for TYTYKLTDEYASRRAEDEWRNRGYDVRVRNNNGTWEVEVR [E10Y] please.
Ans: high class

Q: Lab note: sort TNTYKLTDEEASRRAEDEWRNRGYDVRVRNNNGTWEVEVR [Y2N] into the matching folding stability dG band.
Ans: middle class

Q: Using the reported folding stability dG, which band applies to TYTYKLTDEEASRRAEDEWINRGYDVRVRNNNGTWEVEVR [R20I] ?
Ans: middle class

Q: Which class does TYTYKLLDEEASRRAEDEWRNRGYDVRVRNNNGTWEVEVR [T7L] fall in?
Ans: high class

Q: Band of TYTYKLTDEEASRRAEDEWRNRGYDVRKRNNNGTWEVEVR [V28K] ?
Ans: low class

Q: Form field 'band' for TYTYKLTDEEASRRAEDYWRNRGYDVRVRNNNGTWEVEVR [E18Y]
Ans: high class

Q: Category of TYTYKLTDIEASRRAEDEWRNRGYDVRVRNNNGTWEVEVR [E9I] , please.
Ans: middle class

Q: Which category fits this record: TYTYPLTDEEASRRAEDEWRNRGYDVRVRNNNGTWEVEVR [K5P]
Ans: middle class

Q: Which of the defined bands does the recorded folding stability dG of TYTYKLTDEEASRRAEDEWRNRGYDVRVRNNNGTWEVEAR [V39A] sit within?
Ans: low class

Q: Class label required: TYTYKLTDEEASRRAEDEWTNRGYDVRVRNNNGTWEVEVR [R20T]
Ans: middle class

Q: Place this variant in its band: TYTYKLTDEEASRRADDEWRNRGYDVRVRNNNGTWEVEVR [E16D]
Ans: low class

Q: Band for the recorded folding stability dG of TYTYKLTDEEASRRAEDEWRNRGYDVRVRNNIGTWEVEVR [N32I] ?
Ans: low class

Q: For TYTYKLTDEEASRRREDEWRNRGYDVRVRNNNGTWEVEVR [A15R] , which folding stability dG bin applies?
Ans: middle class

Q: Tag the class for TYTYKLTDEEASRRAEDEWRNRGYDVRVRYNNGTWEVEVR [N30Y]
Ans: high class

Q: Which band does TYTYKLTDEEASRRAEDEWRNRGYDVRVRNNNGTTEVEVR [W35T] fall in?
Ans: low class

Q: Hey, which category is TYTYKLTDEEASRRAEDEWRNRGYDVRVRNNHGTWEVEVR [N32H] in, do you know?
Ans: high class

Q: Given TTTYKLTDEEASRRAEDEWRNRGYDVRVRNNNGTWEVEVR [Y2T] , name the class its folding stability dG places it in.
Ans: high class

Q: The entry to classify is TYTYQLTDEEASRRAEDEWRNRGYDVRVRNNNGTWEVEVR [K5Q] ; which class holds it?
Ans: high class

Q: Assign a category based on measured folding stability dG for TYTYKLTDEEASRRAEDEWRNRGNDVRVRNNNGTWEVEVR [Y24N] and give only the class name.
Ans: low class

Q: Category lookup for the variant TYTYKLTDEEASRRAEDEWRNRGYDVRVRNNNWTWEVEVR [G33W]
Ans: low class

Q: Band for the recorded folding stability dG of TYTYKLTDEEASRRAEDEWRNRGYDVRVRNNNGTWEVYVR [E38Y] ?
Ans: high class

Q: Which folding stability dG category applies to TYTYKLTDEEASRRAEDEWRNGGYDVRVRNNNGTWEVEVR [R22G] here?
Ans: low class

Q: Hi there! Could you help me figure out the category for TYTYKLTDEEASRRAEDEWRNRGYDVRVRANNGTWEVEVR [N30A] please?
Ans: high class

The origin of these recorded values is the MegaScale stability set (Tsuboyama et al. 2023).
